- target_or_test_system: recombinant human SK (Homo sapiens, UniProt Q9NYA1)
- Construct: GST (glutathione-S-transferase) (N); made in house; host or cells: bacteria (pGEX bacterial expression vector)
- Sequence (Q9NYA1 whole entry): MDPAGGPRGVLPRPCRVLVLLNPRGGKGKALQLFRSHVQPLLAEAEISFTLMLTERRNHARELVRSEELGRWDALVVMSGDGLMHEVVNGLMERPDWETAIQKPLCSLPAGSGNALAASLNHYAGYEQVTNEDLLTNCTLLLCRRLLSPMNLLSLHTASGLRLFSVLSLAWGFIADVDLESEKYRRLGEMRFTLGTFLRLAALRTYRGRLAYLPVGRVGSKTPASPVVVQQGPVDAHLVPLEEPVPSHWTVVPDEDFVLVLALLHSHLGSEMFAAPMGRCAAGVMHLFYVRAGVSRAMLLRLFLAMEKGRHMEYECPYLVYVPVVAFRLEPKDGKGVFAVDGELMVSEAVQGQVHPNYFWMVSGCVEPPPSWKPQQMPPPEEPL
- protocol_summary: Recombinant human SK activity assay ([3H]sphingosine to [3H]S1P)
- Assay type: biochemical
- test_settings: Human SK incubated with 6 μg/mL of compound; percentage of SK activity inhibited
Please use the following inhibition at 6 µg/mL ranges when assigning a class: 1 = under 30%, 2 = from 30% up to 80%, 3 = 80% and over

As a guide, the following entries are already answered.
| molecule | answer_label |
| --- | --- |
| O=C(NCCCN1CCCC1)C12CC3CC(C1)CC(c1ccc(Cl)cc1)(C3)C2 [A54] | 3 |
| CN(C)c1ccc(CNC(=O)C23CC4CC(C2)CC(c2ccc(Cl)cc2)(C4)C3)cc1 [A31] | 2 |
| O=C(Nc1cccc(CO)c1)C12CC3CC(C1)CC(c1ccc(Cl)cc1)(C3)C2 [A9] | 3 |

Field: class (inhibition at 6 µg/mL) — entry: CC(NC(=O)C12CC3CC(C1)CC(c1ccc(Cl)cc1)(C3)C2)c1ccc(Cl)cc1 (stereo not drawn) [A28] 1
